TGI values for the compounds below.
tested on: NCI-H522 lung; assay: NCI tumour cell line growth inhibition, 48 h
quantity measured: TGI (µM)

compound	tgt	sign qualifier	readout number
Cc1ccc2c(c1)CN(C(=O)CCC(=O)OCc1ccccc1)c1ccc(C)cc1CN2C(=O)CCC(=O)OCc1ccccc1	NCI-H522 lung	>	100
COC(=O)C(=O)C(C(=O)C=C(C)C)C(=O)C(=O)Nc1ccc(C)cc1C (stereo unspecified)	NCI-H522 lung	>	100
N#Cc1cccc(NC(=O)c2cc(-c3ccc(F)cc3F)ccc2O)c1	NCI-H522 lung	=	12.1
FC(F)(F)c1nc(-c2ccccc2)oc1Sc1nnc(Sc2oc(-c3ccccc3)nc2C(F)(F)F)s1	NCI-H522 lung	=	36.8
CCOC(=O)C(O)(NC(=O)c1ccc(F)cc1)C(F)(F)F (stereo unspecified)	NCI-H522 lung	>	100
COc1cc2c(c(OC)c1OC)C(=O)[C@@H]1c3ccc([N+](=O)[O-])cc3C(=O)N(CCCBr)[C@H]21	NCI-H522 lung	=	25.2
COc1cc2c3c(n(CCNCCCNCCn4c5c(c6cc(OC)c(OC)cc6c4=O)C(=O)c4ccccc4-5)c(=O)c2cc1OC)-c1ccccc1C3=O	NCI-H522 lung	=	6.66
c1ccc(CSP234N5CCN2CCN3CCN4CC5)c(CSP234N5CCN2CCN3CCN4CC5)c1	NCI-H522 lung	>	100
C=C1CC[C@@H]2[C@](C)(COC(C)=O)[C@H](OC(C)=O)CC[C@@]2(C)[C@@H]1CC(Nc1ccc(S(=O)(=O)Nc2ncccn2)cc1)C1=CCOC1=O (stereo partly specified)	NCI-H522 lung	=	2.07
Cc1ccc2c3c(c(=O)[nH]c2c1)C1(C(C#N)=C(N)O3)c2cc(Br)ccc2-c2ccc(Br)cc21	NCI-H522 lung	=	4.32
CCOP(=O)(CN1CCNCCNCC1)OCC	NCI-H522 lung	>	100

---

tested on: UACC-257 melanoma; assay: NCI tumour cell line growth inhibition, 48 h
quantity measured: TGI

> print(dat)
                                     smiles  quantity.measured    result
1  NC(N)=N/N=C/c1c(-c2cccc([N+](=O)[O-])c2)nc2n1CCS2                TGI   36.1 µM
2  NC(=S)Nc1ccc(S(=O)(=O)Nc2ccc(S(N)(=O)=O)cc2)cc1                TGI  > 100 µM
3  CCNc1cc2c(cc1O)CC[C@@H]1[C@@H]2CC[C@]2(C)[C@@H](O)CC[C@@H]12                TGI     25 µM

---

tested on: NCI/ADR-RES ovarian; experiment: NCI tumour cell line growth inhibition, 48 h; in the data active = GI50 below about 0.43 µM; inactive = the rest
Labels: 1.0 for active, 0.0 for inactive

compound	answer label
C=C[C@H]1C[C@@H]2C[C@@H]3[C@H]4C/C=C\C(=O)NCCCC5NC(=O)C(=C(O)/C=C/[C@@H]4CC(=O)[C@H]3[C@@H]2[C@H]1C)C5=O (stereo partly drawn)	1.0
COc1cc2c3c(n(CCCCOC(=O)C(Cl)(Cl)Cl)c(=O)c2cc1OC)-c1cc2c(cc1C3=O)OCO2	0.0
CCCCCN(CCCCC)CC(O)c1ccc(Cl)c2ccccc12 (stereo not drawn)	0.0

---

tested on: PC-3 prostate; assay: NCI tumour cell line growth inhibition, 48 h
Consider the following compounds and their measured TGI readings.
quantity measured: TGI

compound	result
O=C1N[C@@H](c2c[nH]c3cc(Br)ccc23)C(=O)N[C@H]1c1c[nH]c2cc(Br)ccc12	> 100 µM
O=C1O/C(=C(/Br)c2ccc(Cl)c(Cl)c2)c2ccccc21	> 10 µM
NC(=S)Nc1ccc(S(=O)(=O)Nc2ccc(S(N)(=O)=O)cc2)cc1	> 100 µM
COc1cc(OC)c2c(=O)c(OC)c(-c3ccc4c(c3)OCO4)oc2c1	> 100 µM
O=c1[nH]c(=O)n(C2OC(CO)C(O)C(O)C2O)cc1F (stereo not given)	> 100 µM
Cc1cc(O)c(C(C)(C)C)cc1Sc1cc(C(C)(C)C)c(O)cc1C	10.6 µM
CSc1nc2cc(S(=O)(=O)N3CCCCC3)ccc2s1	> 100 µM
Cc1ccccc1N=Nc1ccc(N/N=C2/CCCNC2=O)c(C)c1	> 100 µM
COC(=O)CCc1cc(O)c2c(c1)C(C(=O)OC)C(c1ccc(O)c(O)c1)O2 (stereo not given)	> 100 µM
CNc1nc2n(CCO)c(-c3ccccc3)c(-c3ccccc3)nc-2c(=O)n1	> 50 µM
COc1ccc(C2C3=C(Nc4ncnn42)c2ccccc2OC3c2ccccc2)cc1 (stereo not given)	> 100 µM
O=C(O)[C@@H]1CSCN1C(=O)[C@@H]1CCC(=S)N1	> 100 µM
O=C(O)Cc1cc(O)c(CC(=O)O)cc1O	> 100 µM
COc1cc(O)c2c(c1)OCC(Cc1ccc(O)cc1)C2=O (stereo not given)	> 100 µM
O=C(O)[C@@H]1CCCCN1Cc1cc2cc3c(cc2c2cc(OCc4ccccc4)ccc12)OCO3	38.3 µM
COc1cc(/C=C2\N=C(c3ccccc3)N(c3nc4c(OC)ccc(OC)c4s3)C2=O)ccc1O	> 100 µM
Cc1cc(=O)n2nc(CN3CCCCC3)sc2n1	> 100 µM
COc1ccc(-n2cc(-c3cc(OC)c(OC)c(OC)c3)[nH]c2=O)cc1Cl	> 100 µM
COc1cc(OC)cc(-c2nc3cc(F)ccc3s2)c1	> 100 µM
O=C1C(Cl)C(c2cccc(Cl)c2)N1c1ccc(-n2c(=S)[nH]c3ccccc3c2=O)cc1 (stereo not given)	> 100 µM
C=C1C(=O)O[C@H]2[C@H]1CC/C(COC(=O)c1cc3ccccc3s1)=C\CC[C@@]1(C)O[C@@H]21	3.59 µM
COC(=O)[C@H](Cc1c[nH]c2ccccc12)NC(=O)[C@@H](OC)[C@@H]1Cc2cc3cc(OC4CC(OC5CC(O)C(O)C(C)O5)C(O)C(C)O4)c(C)c(O)c3c(O)c2C(=O)[C@H]1OC1CC(OC2CC(OC3CC(C)(O)C(O)C(C)O3)C(O)C(C)O2)C(O)C(C)O1 (stereo not given in full)	0.412 µM
O=S1(=O)N(CCNc2nccc(-c3c(-c4cccc(O)c4)nc4sccn34)n2)CCN1Cc1ccccc1	> 50 µM
Cc1ccc(NC(=O)c2cccc(OP(=O)(O)Nc3ccc(C)cc3)c2)cc1	> 100 µM
Cc1ccc(C(=O)Nc2ccc(CN3CCN(C)CC3)c(C(F)(F)F)c2)cc1C#Cc1cnc(N)c2ccccc12	1.72 µM
COc1cc2c(c(OC)c1OC)-c1c(cc3c(c1OC)OCO3)C1OC2C(C)C1C (stereo not given) (tested in a mixture with another compound)	> 100 µM
Nc1ncn(C2CC(O)C(CO)O2)c(=O)n1 (stereo not given)	> 204 µM
CCC(=O)c1c(C(F)(F)F)n([O-])c2ccc(C)cc2[n+]1=O	15.1 µM
COc1ccc(C2SCC(=O)N2NC(=O)Nc2c(C)nc3ccccn23)cc1 (stereo not given)	> 100 µM
CC(C)=CC(=O)C[C@H]1C(=O)O[C@@H]2C[C@H]3C(C)=CC(=O)[C@@H](O)[C@]3(C)[C@H]3[C@@]4(O)OC[C@]32[C@@H]1[C@@H](C)[C@H]4O	0.241 µM

---

test system: OVCAR-8 ovarian; test: NCI tumour cell line growth inhibition, 48 h
quantity measured: TGI

compound	tgt	quantity measured	result
COC/C=C\[C@]1(O)CCCC[C@@H]1CC(OC)OC	OVCAR-8 ovarian	TGI	> 100 µM
c1ccc(CSP234N5CCN2CCN3CCN4CC5)c(CSP234N5CCN2CCN3CCN4CC5)c1	OVCAR-8 ovarian	TGI	> 100 µM
O=c1[nH]nc(Cc2ccccc2)[nH]1	OVCAR-8 ovarian	TGI	> 100 µM
COC(=O)C12C3C4C1C1C2C3C41NC(=O)c1csc([C@@H](C[C@H](C(C)C)N(C)C(=O)[C@@H](NC(=O)[C@H]2CCCCN2C)C2CC2)OC(C)=O)n1 (stereo partly specified)	OVCAR-8 ovarian	TGI	> 33.3 µM
NCCCCC(N)C(=O)NCCNc1ccc(NCCNC(=O)C(N)CCCCN)c2c1C(=O)c1ccccc1C2=O (stereo unspecified)	OVCAR-8 ovarian	TGI	> 69 µM
O=C(O)[C@@H]1CCCCN1Cc1cc2cc3c(cc2c2cc(OCc4ccccc4)ccc12)OCO3	OVCAR-8 ovarian	TGI	29 µM

---

test system: T-47D breast; assay: NCI tumour cell line growth inhibition, 48 h

molecule	tgt	TGI
CC12CCC([C@H](C(O)C3CCCCC3)C1=O)C2(C)C (some centres not stated)	T-47D breast	> 100 µM
CC[CH2][Sn]([Cl])([Cl])[CH2]CC.Oc1ccccc1C=NCCN=Cc1ccccc1O	T-47D breast	2.6 µM
C=C1CC[C@H](O)C(C)(C)[C@@H]1CC/C(C)=C/CC/C=C(\C)CC/C=C(\C)CCC=C(C)C	T-47D breast	59.3 µM
O=C1OC(c2ccco2)=N/C1=C\c1cccc([N+](=O)[O-])c1	T-47D breast	> 100 µM
COc1cc2c(c(OC)c1OC)-c1c(cc3c(c1OC)OCO3)C1OC2C(C)C1C (configuration not stated) (tested in a mixture with another compound)	T-47D breast	80.2 µM
Clc1ccc(-c2c(C3=NCCCN3)nnn2-c2ccc(Cl)cc2)cc1	T-47D breast	> 59.8 µM
COc1cc(/C=C2\CN(C)CC3=C2NC(=S)NC3c2cc(OC)c(OC)c(OC)c2)cc(OC)c1OC (configuration not stated)	T-47D breast	> 100 µM
C/C=C(\C)CC/C=C/CO[Si](C)(C)C(C)(C)C	T-47D breast	> 100 µM
COC(=O)C(NC(=O)c1ccccc1)c1ccco1 (configuration not stated)	T-47D breast	> 100 µM
Cc1ccc(-c2c3nc(c(-c4ccc(C)cc4)c4ccc([nH]4)c(-c4ccc(OCC5COC(C)(C)O5)cc4)c4nc(c(-c5ccc(C)cc5)c5ccc2[nH]5)C=C4)C=C3)cc1 (configuration not stated)	T-47D breast	> 31.6 µM
C=C[C@H]1C[C@@H]2C[C@@H]3[C@H]4C/C=C\C(=O)NCCCC5NC(=O)C(=C(O)/C=C/[C@@H]4CC(=O)[C@H]3[C@@H]2[C@H]1C)C5=O (some centres not stated)	T-47D breast	3.52 µM
CC(C)(C)C1=CC(=C(c2ccc(-c3c4nc(c(-c5ccc(C(=C6C=C(C(C)(C)C)C(=O)C(C(C)(C)C)=C6)c6cc(C(C)(C)C)c(O)c(C(C)(C)C)c6)cc5)c5ccc([nH]5)c(-c5ccc(C(=C6C=C(C(C)(C)C)C(=O)C(C(C)(C)C)=C6)c6cc(C(C)(C)C)c(O)c(C(C)(C)C)c6)cc5)c5nc(c(-c6ccc(C(=C7C=C(C(C)(C)C)C(=O)C(C(C)(C)C)=C7)c7cc(C(C)(C)C)c(O)c(C(C)(C)C)c7)cc6)c6ccc3[nH]6)C=C5)C=C4)cc2)c2cc(C(C)(C)C)c(O)c(C(C)(C)C)c2)C=C(C(C)(C)C)C1=O	T-47D breast	> 100 µM
COc1cc2c(c(OC)c1OC)C(=O)[C@@H]1c3ccc([N+](=O)[O-])cc3C(=O)N(CCCBr)[C@H]21	T-47D breast	> 100 µM
CC[C@H](C)[C@H]1O[C@]2(C=C[C@@H]1C)C[C@@H]1C[C@@H](C/C=C(\C)[C@@H](O[C@H]3C[C@H](OC)[C@@H](O[C@H]4C[C@H](OC)[C@@H](NC)[C@H](C)O4)[C@H](C)O3)[C@@H](C)/C=C/C=C3\CO[C@@H]4[C@H](O)C(C)=C[C@@H](C(=O)O1)[C@]34O)O2	T-47D breast	16.8 µM
CCNc1cc2c(cc1O)CC[C@@H]1[C@@H]2CC[C@]2(C)[C@@H](O)CC[C@@H]12	T-47D breast	> 55.3 µM
O=C(/C(=C/c1cccc([N+](=O)[O-])c1)c1ccccc1)c1ccccc1	T-47D breast	15.5 µM
CS(=O)(=O)c1cc(=O)c2ccccc2s1	T-47D breast	9.41 µM
N#C/C(N)=C(\C#N)N=CN	T-47D breast	> 100 µM
O=c1oc2cc(O)ccc2c(O)c1C(c1ccccc1F)c1c(O)c2ccc(O)cc2oc1=O	T-47D breast	> 100 µM
C/C(=N\Nc1ccc(Cl)cn1)c1ccccn1	T-47D breast	> 38.8 µM
O=C(O)Cc1cc(O)c(CC(=O)O)cc1O	T-47D breast	> 100 µM
CC(C)CCCC(=O)CCCCCCC(=O)CCN(O)C(=O)C(N)CO (configuration not stated)	T-47D breast	34.8 µM
CCN(CC)CCCC(C)Nc1cnc(C(=O)Nc2cccc3ccc(OC)nc23)cn1 (configuration not stated)	T-47D breast	3.95 µM
Cc1cc(=O)n2nc(CN3CCCCC3)sc2n1	T-47D breast	> 100 µM
O=C1C=CC=C/C1=C1\N=C(c2ccccc2OCC(=O)c2ccc(Br)cc2)SS1	T-47D breast	> 100 µM
COc1ccc(C2=Nn3c(nnc(Cc4ccc(Cl)cc4)c3=O)SC2)cc1	T-47D breast	> 100 µM
C/C=C(/C)C(=O)O[C@H]1C[C@@H]2[C@@H](O)c3occ(C)c3C[C@]2(C)[C@@H](C)C1	T-47D breast	30 µM
